assay: qHTS assay for small molecule disruptors of the mitochondrial membrane potential - cell viability (AID 720634); conditions: HepG2 viability, ATP luminescence (CellTiter-Glo), 1 h; series mostly up to 83.2 µM; also: nearly all actives have a fitted effect of over 20% in size
Results filed as inconclusive are left out. The source made the active and inactive calls. Calls follow the shape of the full dose curve.
Pick from true = active, false = inactive when you respond.

molecule	answerLabel
CN1C[C@H]2c3ccccc3Oc3ccc(Cl)cc3[C@@H]2C1	false

Please state the recorded outcome for this molecule: CCCCC(=O)OCC(=O)[C@H]1[C@H](C)C[C@H]2[C@@H]3C[C@H](F)C4=CC(=O)C=C[C@]4(C)[C@@]3(F)[C@@H](O)C[C@@]21C
false

Request: O=C(Nc1ccccc1)c1ccccc1O
true

What do you get for Cc1cccc(C)c1OCC(=O)N[C@@H](Cc1ccccc1)[C@@H](O)C[C@H](Cc1ccccc1)NC(=O)[C@H](C(C)C)N1CCCNC1=O ?
false

Where do the numbers come from? From PubChem BioAssay (Tox21).
